Each item that follows carries a reported inhibition at 1 µM.
# TESTED_ON: human PF4 (Homo sapiens, UniProt P02776)
# Construct: PF4 is a 70 amino acid, lysine-rich 7.8 kDa platelet-specific protein; made in house; host or cells: Escherichia coli BL21DE3 pLysS (pT7-7) and/or Drosophila S2 cells
# Sequence (P02776 32-101): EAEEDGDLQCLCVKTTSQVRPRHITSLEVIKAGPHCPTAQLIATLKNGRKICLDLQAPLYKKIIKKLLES
# EXPERIMENTAL_DETAILS: Inhibition of PF4 tetramer formation (BS3 cross-linking, SDS-PAGE)
# Format: biochemical
# CONDITION_DESCRIPTION: 1 μM inhibitor; read-out: % inhibition of PF4 tetramer formation at single concentration of inhibitor
MEASURED_PROPERTY: inhibition at 1 µM (%)

compound="O=C(c1ccc2c(c1)C(=O)C(C(=O)CC1CCCC1=O)C2=O)c1ccc2c(c1)C(=O)C(C(=O)CC1CCCC1=O)C2=O (stereo not shown)" measured_property="inhibition at 1 µM" value=67
compound="CC(C)(C)OC(=O)NCC(=O)C1C(=O)c2ccc(Oc3ccc4c(c3)C(=O)C(C(=O)CNC(=O)OC(C)(C)C)C4=O)cc2C1=O (stereo not shown)" measured_property="inhibition at 1 µM" value=26
compound="O=C(NC1CCC1)C1C(=O)c2ccc(Oc3ccc4c(c3)C(=O)C(C(=O)NC3CCC3)C4=O)cc2C1=O (stereo not shown)" measured_property="inhibition at 1 µM" value=31
compound="CSCC(=O)C1C(=O)c2ccc(S(=O)(=O)c3ccc4c(c3)C(=O)C(C(=O)CSC)C4=O)cc2C1=O (stereo not shown)" measured_property="inhibition at 1 µM" value=29
compound="O=C(c1ccc2c(c1)C(=O)C(C(=O)C1CCCS1(=O)=O)C2=O)c1ccc2c(c1)C(=O)C(C(=O)C1CCCS1(=O)=O)C2=O (stereo not shown)" measured_property="inhibition at 1 µM" value=7
compound="O=C1c2ccc(Oc3ccc4c(c3)C(=O)C(C(=O)[C@H]3CCCN3)C4=O)cc2C(=O)C1C(=O)[C@@H]1CCNC1 (stereo partly shown)" measured_property="inhibition at 1 µM" value=18
compound="CCNC(=O)C1C(=O)c2ccc(Oc3ccc4c(c3)C(=O)C(C(=O)NCC)C4=O)cc2C1=O (stereo not shown)" measured_property="inhibition at 1 µM" value=27
compound="CC(C)(C)OC(=O)NCCCC(=O)C1C(=O)c2ccc(S(=O)(=O)c3ccc4c(c3)C(=O)C(C(=O)CCCNC(=O)OC(C)(C)C)C4=O)cc2C1=O (stereo not shown)" measured_property="inhibition at 1 µM" value=16
compound="CC(C)(C)OC(=O)N1CCOC(C(=O)C2C(=O)c3ccc(S(=O)(=O)c4ccc5c(c4)C(=O)C(C(=O)C4CN(C(=O)OC(C)(C)C)CCO4)C5=O)cc3C2=O)C1 (stereo not shown)" measured_property="inhibition at 1 µM" value=1
compound="O=C(NC1CCOCC1)C1C(=O)c2ccc(S(=O)(=O)c3ccc4c(c3)C(=O)C(C(=O)NC3CCOCC3)C4=O)cc2C1=O (stereo not shown)" measured_property="inhibition at 1 µM" value=1
compound="CSCCCC(=O)C1C(=O)c2ccc(S(=O)(=O)c3ccc4c(c3)C(=O)C(C(=O)CCCSC)C4=O)cc2C1=O (stereo not shown)" measured_property="inhibition at 1 µM" value=33
compound="CC(=O)NCCCC(=O)C1C(=O)c2ccc(C(=O)c3ccc4c(c3)C(=O)C(C(=O)CCCNC(C)=O)C4=O)cc2C1=O (stereo not shown)" measured_property="inhibition at 1 µM" value=14
compound="COC(=O)CCC(=O)C1C(=O)c2ccc(C(=O)c3ccc4c(c3)C(=O)C(C(=O)CCC(=O)OC)C4=O)cc2C1=O (stereo not shown)" measured_property="inhibition at 1 µM" value=1

----------
# TESTED_ON: human PF4 (Homo sapiens, UniProt P02776)
# Construct: PF4 is a 70 amino acid, lysine-rich 7.8 kDa platelet-specific protein; made in house; host or cells: Escherichia coli BL21DE3 pLysS (pT7-7) and/or Drosophila S2 cells
# EXPERIMENTAL_DETAILS: Inhibition of PF4 tetramer formation (BS3 cross-linking, SDS-PAGE)
# Assay type: biochemical
# CONDITION_DESCRIPTION: 5 μM inhibitor; read-out: % inhibition of PF4 tetramer formation at single concentration of inhibitor
MEASURED_PROPERTY: inhibition at 5 µM (%)

compound="CC(=O)NCC(=O)C1C(=O)c2ccc(S(=O)(=O)c3ccc4c(c3)C(=O)C(C(=O)CNC(C)=O)C4=O)cc2C1=O (centres unmarked)" value=90
compound="CC(C)(C)OC(=O)N1CCC[C@H]1C(=O)C1C(=O)c2ccc(Oc3ccc4c(c3)C(=O)C(C(=O)[C@@H]3CCCN3C(=O)OC(C)(C)C)C4=O)cc2C1=O (some centres unmarked)" value=37
compound="CC(C)(C)OC(=O)N1CSC[C@@H]1C(=O)C1C(=O)c2ccc(S(=O)(=O)c3ccc4c(c3)C(=O)C(C(=O)[C@H]3CSCN3C(=O)OC(C)(C)C)C4=O)cc2C1=O (some centres unmarked)" value=92
compound="CC(=O)NCC(=O)C1C(=O)c2ccc(C(=O)c3ccc4c(c3)C(=O)C(C(=O)CNC(C)=O)C4=O)cc2C1=O (centres unmarked)" value=86
compound="CC(C)(C)OC(=O)N[C@@H](Cc1ccccc1)C(=O)C1C(=O)c2ccc(S(=O)(=O)c3ccc4c(c3)C(=O)C(C(=O)[C@H](Cc3ccccc3)NC(=O)OC(C)(C)C)C4=O)cc2C1=O (some centres unmarked)" value=100
compound="O=C(c1ccc2c(c1)C(=O)C(C(=O)CC1CCCC1)C2=O)c1ccc2c(c1)C(=O)C(C(=O)CC1CCCC1)C2=O (centres unmarked)" value=38
compound="CC(C)(C)OC(=O)N[C@@H](C(=O)C1C(=O)c2ccc(S(=O)(=O)c3ccc4c(c3)C(=O)C(C(=O)[C@H](NC(=O)OC(C)(C)C)c3ccccc3)C4=O)cc2C1=O)c1ccccc1 (some centres unmarked)" value=74
compound="N[C@@H](C(=O)C1C(=O)c2ccc(S(=O)(=O)c3ccc4c(c3)C(=O)C(C(=O)[C@H](N)c3ccccc3)C4=O)cc2C1=O)c1ccccc1 (some centres unmarked)" value=81
compound="CC(C)(C)OC(=O)N1CCC[C@@H]1C(=O)C1C(=O)c2ccc(C(=O)c3ccc4c(c3)C(=O)C(C(=O)[C@H]3CCCN3C(=O)OC(C)(C)C)C4=O)cc2C1=O (some centres unmarked)" value=87
compound="CC(C)(C)OC(=O)NCC(=O)C1C(=O)c2ccc(C(=O)c3ccc4c(c3)C(=O)C(C(=O)CNC(=O)OC(C)(C)C)C4=O)cc2C1=O (centres unmarked)" value=87
compound="C[C@H](NC(=O)OC(C)(C)C)C(=O)C1C(=O)c2ccc(C(=O)c3ccc4c(c3)C(=O)C(C(=O)[C@H](C)NC(=O)OC(C)(C)C)C4=O)cc2C1=O (some centres unmarked)" value=81

----------
# TESTED_ON: human PF4 (Homo sapiens, UniProt P02776)
# Construct: PF4 is a 70 amino acid, lysine-rich 7.8 kDa platelet-specific protein; made in house; host or cells: Escherichia coli BL21DE3 pLysS (pT7-7) and/or Drosophila S2 cells
# EXPERIMENTAL_DETAILS: Inhibition of PF4 tetramer formation (BS3 cross-linking, SDS-PAGE)
# Type: biochemical
# CONDITION_DESCRIPTION: 10 μM inhibitor (column A); read-out: % inhibition of PF4 tetramer formation at single concentration of inhibitor
inhibition at 10 µM values by entry
MEASURED_PROPERTY: inhibition at 10 µM (%)

compound="O=C(c1ccc2c(c1)C(=O)C(C(=O)NCCc1ccc3c(c1)OCO3)C2=O)c1ccc2c(c1)C(=O)C(C(=O)NCCc1ccc3c(c1)OCO3)C2=O (stereo not drawn) [Example 18]" tested_on="human PF4 (Homo sapiens, UniProt P02776)" measured_property="inhibition at 10 µM" value=75
compound="COC1CCC(C(=O)C2C(=O)c3ccc(S(=O)(=O)c4ccc5c(c4)C(=O)C(C(=O)C4CCC(OC)CC4)C5=O)cc3C2=O)CC1 (stereo not drawn) [Example 151]" tested_on="human PF4 (Homo sapiens, UniProt P02776)" measured_property="inhibition at 10 µM" value=100
compound="O=C(c1ccc2c(c1)C(=O)C(C(=O)CC1CC1)C2=O)c1ccc2c(c1)C(=O)C(C(=O)CC1CC1)C2=O (stereo not drawn) [Example 140]" tested_on="human PF4 (Homo sapiens, UniProt P02776)" measured_property="inhibition at 10 µM" value=93
compound="O=C(c1ccc2c(c1)C(=O)C(C(=O)NC1CCC1)C2=O)c1ccc2c(c1)C(=O)C(C(=O)NC1CCC1)C2=O (stereo not drawn) [Example 68]" tested_on="human PF4 (Homo sapiens, UniProt P02776)" measured_property="inhibition at 10 µM" value=86
compound="CC(C)C(=O)NCC(=O)C1C(=O)c2ccc(S(=O)(=O)c3ccc4c(c3)C(=O)C(C(=O)CNC(=O)C(C)C)C4=O)cc2C1=O (stereo not drawn) [Example 191]" tested_on="human PF4 (Homo sapiens, UniProt P02776)" measured_property="inhibition at 10 µM" value=79
compound="O=C(c1ccc2c(c1)C(=O)C(C(=O)NCCc1ccc(F)cc1)C2=O)c1ccc2c(c1)C(=O)C(C(=O)NCCc1ccc(F)cc1)C2=O (stereo not drawn) [Example 22]" tested_on="human PF4 (Homo sapiens, UniProt P02776)" measured_property="inhibition at 10 µM" value=76
compound="C[C@@H](C(=O)C1C(=O)c2ccc(S(=O)(=O)c3ccc4c(c3)C(=O)C(C(=O)[C@H](C)N(C)C(=O)OC(C)(C)C)C4=O)cc2C1=O)N(C)C(=O)OC(C)(C)C (stereo partly drawn) [Example 156]" tested_on="human PF4 (Homo sapiens, UniProt P02776)" measured_property="inhibition at 10 µM" value=100
compound="O=C(Cc1ccccc1)C1C(=O)c2ccc(S(=O)(=O)c3ccc4c(c3)C(=O)C(C(=O)Cc3ccccc3)C4=O)cc2C1=O (stereo not drawn) [Example 137]" tested_on="human PF4 (Homo sapiens, UniProt P02776)" measured_property="inhibition at 10 µM" value=85
compound="COC(=O)C(C)(C)CC(=O)C1C(=O)c2ccc(C(=O)c3ccc4c(c3)C(=O)C(C(=O)CC(C)(C)C(=O)OC)C4=O)cc2C1=O (stereo not drawn) [Example 219]" tested_on="human PF4 (Homo sapiens, UniProt P02776)" measured_property="inhibition at 10 µM" value=91
compound="CC(C)(C)OC(=O)N1CCC[C@H]1CC(=O)C1C(=O)c2ccc(C(=O)c3ccc4c(c3)C(=O)C(C(=O)C[C@@H]3CCCN3C(=O)OC(C)(C)C)C4=O)cc2C1=O (stereo in doubt) [Example 112]" tested_on="human PF4 (Homo sapiens, UniProt P02776)" measured_property="inhibition at 10 µM" value=89
compound="O=C(c1ccc2c(c1)C(=O)C(C(=O)NCCc1ccccc1)C2=O)c1ccc2c(c1)C(=O)C(C(=O)NCCc1ccccc1)C2=O (stereo not drawn) [Example 20]" tested_on="human PF4 (Homo sapiens, UniProt P02776)" measured_property="inhibition at 10 µM" value=92
compound="CC(C)(C)OC(=O)N[C@@H](C(=O)C1C(=O)c2ccc(C(=O)c3ccc4c(c3)C(=O)C(C(=O)[C@H](NC(=O)OC(C)(C)C)c3ccccc3)C4=O)cc2C1=O)c1ccccc1 (stereo partly drawn) [Example 170]" tested_on="human PF4 (Homo sapiens, UniProt P02776)" measured_property="inhibition at 10 µM" value=85
